- Test system: K4 kissing-loop RNA reporter
- assay_details: apparent KD of K4 kissing-loop reporter; higher = weaker reporter binding
- recorded_conditions: Eterna round: R107; input ligand: arginine 13.2 mM
assay_endpoint: apparent KD of K4 kissing-loop reporter (nM)
Respond with the bare value in nM.

Record excerpt, results attached:
- UGUCAUUGGUCGGCCGCCACUUCAUGUAGAGUGAUGUUCUGUAAGACGGAUCGAAAGAUCUGUCGAAGGACCGGGACCGAUGACU [FiskerMod 13 - Jieux - Same State - Tryptophan B]: 303
- CGCAGUGAUGUUGCGAGUAGCUACAGGGAAGGAGCGCGCUAGUGCGCAGGUAGGUCGCCCACGCAGUGAUGUUGCGUCAUAGGGU [Exclusion Arg A GF8]: 114
- UCUGGAGCGUAUGAUACCAGCAGAGAGAGACAGGAAGUAUAGUGAUGUUAUAUGAGAGAAUGCCCUUGGCAGCGUGUGCAGUGGC [#26 K4 Theophylline B Same State]: 56.5
- GGUACAGCGGAAGGAUAUCUGUCAUGGACGAUCGUAGCUUGAGCUCCCUGAGUGAUGUUUAGGAUGAGAGAAGGUCCACUCGUAU [theeternabot_exclusion_KL_FMN_B_2]: 358
- AGAGUUAUGCGAGGAUAUGCAGUUAGUACUCAAAGAGUACUAACGCAGAGUGAUGUUCUGUGAAACGCAGAAGGUGCAUAACUCA [Omei KL FMN B SS B v4]: 509

Here CAUAUACAAGUGAUGUUUGUACUAACCGAAGGAGCGUCGUUGAAGACAGGUAGGUCGCGGUUUAAGUUAGAUUAUAUAAUUCCAC [JR_Nu_SSArginiA_Sub027] was tested on K4 kissing-loop RNA reporter, and its apparent KD of K4 kissing-loop reporter came to 535

Here AGAGUUAAUUAGUCUUUUUUUACAUUAAGUCAGGAUAUCGUAUAUUCGAGAAGGGACACAUGCUAGUGAUGUUAGCUAUUUCUCA [JR_Nu_ExcFMNA_Sub019] was tested on K4 kissing-loop RNA reporter, and its apparent KD of K4 kissing-loop reporter came to 79.6

Here `GCCGUAGAUGGAAGGAGCGUGUCAAAGUGAUGUUUUGAUUAACUCCCUACGGGAUAGAUGACACAGGUAGGUCGCCAUCUACGGC` was tested on K4 kissing-loop RNA reporter, and its apparent KD of K4 kissing-loop reporter came to 79.3

Here UCUGGUAUAUCUGAUACCAGAGUAUAGUAUCAAUUGCAUAUCCGCAGUGAUGUUGCGGAACUCCCUUGGCAGCAGAUCUAUCUCU [Same State Theophylline B GF 26] was tested on K4 kissing-loop RNA reporter, and its apparent KD of K4 kissing-loop reporter came to 90.6

Here AUGUUGAGCGGAAGGAGCGGCUGAGCCAGUGAUGUUGGUUAAUCCAAGUGAUGUUGGAAAAGCCAGGUAGGUCGCCGUUUUACGU [whbob_SS_Arginine_B_2t145] was tested on K4 kissing-loop RNA reporter, and its apparent KD of K4 kissing-loop reporter came to 597

Here CCAAUCUGUUACGAUACCAGUCAAAGAUAUUUGAUCAAUACCCUCACCGAGUGAUGUUCGGACCCUUGGCAGCGUCUGGGAUAGG [ceevmullin] was tested on K4 kissing-loop RNA reporter, and its apparent KD of K4 kissing-loop reporter came to 267

----------
- System: K4 kissing-loop RNA reporter
- assay_details: apparent KD of K4 kissing-loop reporter; higher = weaker reporter binding
- recorded_conditions: Eterna round: R107; input ligand: none
Label no if apparent KD of K4 kissing-loop reporter falls below 200 nM; label yes in every other case.

* AAGCAGUCACUCUAAGCCAUCGAAGAUGGACGAGGACCGGUACGGCCGCCACUCGGAGUGAUGUUCCGAAGACUGCAAAAUAAAA | yes
* GCCUGGGCACGAAGGAGCGCCGUGACAGGUUACUGCCGUGGGCAGUGAUGUUGCUCAAUCUGGCAGGUAGGUCGCGUGCCCAGGC | no
* CUGUCCUACGAAGGAUAUGCUGAUGGGAUCAAACAGUGAUGUUGUUAUGAACUUAGGCUUAUGUGCGCAGAAGGUCGUGGCGACG [theeternabot_sameState_KL_FMN_B_42] | yes
* CAUAUACAAGUGAUGUUUGUACUAACCGAAGGAGCGUCGUUGAAGACAGGUAGGUCGCGGUUUAAGUUAGAUUAUAUAAUUCCAC [JR_Nu_SSArginiA_Sub027] | yes
* GAGAACUCUUACGAUACCAGCCGGAGUGAUGUUCCGCGCUUGGACGUAGUAACCCGCACCGGCCCUUGGCAGCGUGGAUCCUAUG [Bibiinor] | no

Note: attention shifts to another entry.
query: Given the entry AUUCAUUUCAGAGGAUAUCGAUGGAGAGUGAUGUUCUCCCAUAGCCAGUGAUGUUGGCUAGCUAUUCGAGAAGGCUGUGGGUGGA [Same State FMN B GF 27] , answer whether its apparent KD of K4 kissing-loop reporter meets or surpasses 200 nM.
result: yes

----------
- Test system: MS2 coat protein
- assay_details: apparent KD of MS2 coat protein; designed switch direction (-1 OFF switch, 1 ON switch): 1; higher = weaker reporter binding
- recorded_conditions: Eterna round: R95; input ligand: FMN 200 uM
Label criterion not met if apparent KD of MS2 coat protein falls below 40 nM; label criterion met in every other case.

Worked set:
* GGUUUAGUCAGGUACAGUUGCACCUGAAAACAUGAGGAUCACCCAUGUUUGGGACAAGCUUUGCUCCUCGUCUUGCC [Ralausen] (puzzle: Sensor for hsa-mir-208a) | criterion met
* GAAGGAUGAGCGUAGGAUAUAGGAGGAGUGACAUGAGGAUCACCCAUGUAGUAAGAGGGAGGGUACUAGAAGGACGAGGAAGAAG [JR_SS2_Sub066] (puzzle: Same State 2) | criterion met
* UAUGAACAUGAGGAUCACCCAUGUGGAAAAGACACAGGAUAUCAUCCCGGACGUGCGAGAUGAGAAGGGUGAUGGU [Edrive] (puzzle: Same State 1) | criterion met
* AGUCCAGCCUGAGCUGGACAAAAGCAUGUACAUGAGGAUCACCCAUGUUCAUGUACAAGCUUUUUGCUCGUCUUGAA [salish99_208a_r3_095x] (puzzle: Sensor for hsa-mir-208a) | criterion met
* GAGAGAGGAAGCGAGGAUAUCGUGUUGAGUACAUGAGGAUCACCCAUGUUGUAGGUAGAGGUAGGCGAGAAGGCGCAGGAGAGGG [JR_SS2_Sub099] (puzzle: Same State 2) | criterion met

query: Given the entry CAGCGCUGUCGAGAGGAUAUGCGGUGGUGGACAUGAGGAUCACCCAUGUUAGCGAUAGCAUUACGGUAGAAGGCUCUACAGCUGC [Soteed - 2] (puzzle: Same State 2) , answer whether its apparent KD of MS2 coat protein meets or surpasses 40 nM.
result: criterion not met

query: Given the entry AGUCCAGCCAGAGCUGGACAAAAGCAUGUACAUGAGGAUCACCCAUGUUCAUGUACAAGCUUUUUGCAAGUCAAAAG [Mat - hsa-mir-208a - Mod of JL - 74] (puzzle: Sensor for hsa-mir-208a) , answer whether its apparent KD of MS2 coat protein meets or surpasses 40 nM.
result: criterion met

query: Given the entry AUUAAACAUGAGGAUCACCCAUGUCAACAAAGUCGAGGAUAUGGGCAAAUAAAAUAAUAACCAGAAGGCGAAUAAU [salish99_ss1_r3_065] (puzzle: Same State 1) , answer whether its apparent KD of MS2 coat protein meets or surpasses 40 nM.
result: criterion not met

query: Given the entry CGUCCGGCCUGAGCUGGACGGAUGCAUGUACAUGAGGAUCACCCAUGUUCAUGUGCAGGCUUUUUGCUCGUCUUGUG [salish99_mir208a_modof_jandersonlee_002] (puzzle: Sensor for hsa-mir-208a) , answer whether its apparent KD of MS2 coat protein meets or surpasses 40 nM.
result: criterion not met

----------
Reported values of apparent KD of K4 kissing-loop reporter for individual entries
- Tested on: K4 kissing-loop RNA reporter;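 also: bound reporter read as fluorescence of individual clusters on recovered sequencing chips by microscopy, with normalized cluster intensities fitted with a binding model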
- assay_details: apparent KD of K4 kissing-loop reporter; higher = weaker reporter binding
- recorded_conditions: Eterna round: R107; input ligand: theophylline 20 uM
Respond with the bare value in nM.

What the record says about CUUGUACAAGUGAUGUUUGUUAUAUCCGAAGGAGCGUCGUAAUAGACAGGUAGGUCGCGGAGUAAGAUAGUUUUUUUAAUAUCAU [JR_Nu_SSArginiA_Sub029] : apparent KD of K4 kissing-loop reporter is 462

What the record says about `GGUAGCAUGGCGGCCGCCACUAUAAAGAAUCCAAAGGAUUCUAGGUAGUGAUGUUACCAUAGCUAUAGGACCGGGCCAUGCUACC` : apparent KD of K4 kissing-loop reporter is 121

What the record says about UGAUACCAGACGGCCGCCACUCCUGCAGUCAAAGACUGCUAAGGAAUAUUCGUCCAGUGAUGUUGGAGGACCGGGUCUGGUAUCU [TrypBX 12 #SwitchBubble #Palindromic #StaticStem] : apparent KD of K4 kissing-loop reporter is 896
